assay: NCI Yeast Anticancer Drug Screen. Data for the mec2-1 strain (AID 157); conditions: S. cerevisiae mec2-1 strain, at 50.0 µM, hits give high values
The panel holds about 79,000 compounds, 15% with a hit somewhere; the sample as a whole holds those more often. Where a SMILES comes first, the peptide text is derived from it. The star is where a group is joined. Cbz = O=C(OCc1ccccc1)*; CH2Cl = ClC*
Cut-off 20% on growth inhibition, inclusive. At or above means YES; below means NO.

### Prompt For this compound, is measured growth inhibition 20% or higher? COC(=O)[C@@H](O)[C@]1(C(=O)OC)C2O[C@@H](OC)[C@@H]1CCCCCC[C@H]2O
### Response NO

### Prompt Check if growth inhibition >= 20% (inclusive). Item: CCCCC(/C=N\NC(=O)c1ccc[n+](C)c1)=C/c1ccccc1
### Response YES

### Prompt Identify whether the reported growth inhibition of the following compound is 20% or greater: O=C(Cc1ccccc1)NNc1nc(NNC(=O)c2ccncc2)nc(Nc2ccccc2)n1
### Response NO

### Prompt Tell me whether growth inhibition is at least 20% here: [O-][n+]1c2ccccc2nc2cc(Cl)ccc21
### Response YES

### Prompt Threshold query (growth inhibition >= 20%) on O=C1NC(Cc2ccccc2)C(=O)O1 (stereo unspecified)
### Response NO

### Prompt Does growth inhibition meet or surpass 20% for CC1CCC(NCCOC(=O)c2ccc([N+](=O)[O-])cc2)CC1 (stereo unspecified) ?
### Response NO

### Prompt Determine whether measured growth inhibition meets or exceeds 20% for CC(=O)Oc1ccc(N=[N+]([O-])c2ccc(OC(C)=O)cc2)cc1
### Response NO

### Prompt Given the entry CCN(CC)CCNc1ccc(C)c2sc3ccc(OC)cc3c(=O)c12 , answer whether its growth inhibition meets or surpasses 20%.
### Response YES

### Prompt Form field: growth inhibition at least 20%? Entry: C(=NCCC[Si]12OCCN(CCO1)CCO2)c1ccc(C=NCCC[Si]23OCCN(CCO2)CCO3)cc1
### Response YES

### Prompt Answer whether growth inhibition of S=c1[nH]c2c(-c3ccccc3)cccc2s1 is greater than or equal to 20%.
### Response YES

### Prompt Determine whether measured growth inhibition meets or exceeds 20% for O=C(O)/C=C/c1c2ccccc2cc2ccccc12
### Response YES

### Prompt Could you tell me if the measured growth inhibition of Cc1c2ccnc(-c3ccc(F)cc3)c2cc2c1[nH]c1ccccc12 reaches 20% or more?
### Response NO

### Prompt Check if growth inhibition >= 20% (inclusive). Item: C/C(=C\N1CCN(c2ccc(Cl)cc2)C(C)C1)C(=O)c1ccccc1 (stereo unspecified)
### Response YES

### Prompt Entry CCO/C=C1\N=C(C(O)(c2ccc(Cl)cc2)c2ccc(Cl)cc2)OC1=O : is its growth inhibition no less than 20%?
### Response NO

### Prompt Is the recorded value of growth inhibition equal to or greater than 20% for this compound? CC(=O)N1c2ccccc2Sc2ccc(C(=O)CCl)cc21
### Response YES

### Prompt Is growth inhibition at least 20%? Consider CC(C)CC(NC(=O)OCc1ccccc1)C(=O)NC(Cc1ccccc1)C(=O)CCl (stereo not drawn) (Cbz-Leu-Phe-CH2Cl; configuration not given here)
### Response YES

### Prompt For this compound, is measured growth inhibition 20% or higher? CN1CCCCC1c1cc2c3ccccc3ccn2c1-c1ccccc1 (stereo unspecified)
### Response YES

### Prompt Confirm if growth inhibition reported for the compound CC(C)CCCC(C)C1CCC2C3CC=C4OC(=O)CCC4(C)C3CCC12C (stereo unspecified) is 20% or above.
### Response YES

### Prompt Check if growth inhibition >= 20% (inclusive). Item: O=C1C=CC(=O)c2c1cc1ccccc1c2O
### Response NO

### Prompt Is growth inhibition at least 20%? Consider C1=C(c2c(-c3ccccc3)[nH]c3ccccc23)Cc2ccccc21
### Response YES

# credit: PubChem BioAssay (NCI)
